target: cynomolgus monkey complement component C3 (cynomolgus monkey, UniProt P01024 24-1663 (human entry)); assay: cell-based or functional assay
Sequence (P01024 other isoform, or with tags, fused parts or gaps): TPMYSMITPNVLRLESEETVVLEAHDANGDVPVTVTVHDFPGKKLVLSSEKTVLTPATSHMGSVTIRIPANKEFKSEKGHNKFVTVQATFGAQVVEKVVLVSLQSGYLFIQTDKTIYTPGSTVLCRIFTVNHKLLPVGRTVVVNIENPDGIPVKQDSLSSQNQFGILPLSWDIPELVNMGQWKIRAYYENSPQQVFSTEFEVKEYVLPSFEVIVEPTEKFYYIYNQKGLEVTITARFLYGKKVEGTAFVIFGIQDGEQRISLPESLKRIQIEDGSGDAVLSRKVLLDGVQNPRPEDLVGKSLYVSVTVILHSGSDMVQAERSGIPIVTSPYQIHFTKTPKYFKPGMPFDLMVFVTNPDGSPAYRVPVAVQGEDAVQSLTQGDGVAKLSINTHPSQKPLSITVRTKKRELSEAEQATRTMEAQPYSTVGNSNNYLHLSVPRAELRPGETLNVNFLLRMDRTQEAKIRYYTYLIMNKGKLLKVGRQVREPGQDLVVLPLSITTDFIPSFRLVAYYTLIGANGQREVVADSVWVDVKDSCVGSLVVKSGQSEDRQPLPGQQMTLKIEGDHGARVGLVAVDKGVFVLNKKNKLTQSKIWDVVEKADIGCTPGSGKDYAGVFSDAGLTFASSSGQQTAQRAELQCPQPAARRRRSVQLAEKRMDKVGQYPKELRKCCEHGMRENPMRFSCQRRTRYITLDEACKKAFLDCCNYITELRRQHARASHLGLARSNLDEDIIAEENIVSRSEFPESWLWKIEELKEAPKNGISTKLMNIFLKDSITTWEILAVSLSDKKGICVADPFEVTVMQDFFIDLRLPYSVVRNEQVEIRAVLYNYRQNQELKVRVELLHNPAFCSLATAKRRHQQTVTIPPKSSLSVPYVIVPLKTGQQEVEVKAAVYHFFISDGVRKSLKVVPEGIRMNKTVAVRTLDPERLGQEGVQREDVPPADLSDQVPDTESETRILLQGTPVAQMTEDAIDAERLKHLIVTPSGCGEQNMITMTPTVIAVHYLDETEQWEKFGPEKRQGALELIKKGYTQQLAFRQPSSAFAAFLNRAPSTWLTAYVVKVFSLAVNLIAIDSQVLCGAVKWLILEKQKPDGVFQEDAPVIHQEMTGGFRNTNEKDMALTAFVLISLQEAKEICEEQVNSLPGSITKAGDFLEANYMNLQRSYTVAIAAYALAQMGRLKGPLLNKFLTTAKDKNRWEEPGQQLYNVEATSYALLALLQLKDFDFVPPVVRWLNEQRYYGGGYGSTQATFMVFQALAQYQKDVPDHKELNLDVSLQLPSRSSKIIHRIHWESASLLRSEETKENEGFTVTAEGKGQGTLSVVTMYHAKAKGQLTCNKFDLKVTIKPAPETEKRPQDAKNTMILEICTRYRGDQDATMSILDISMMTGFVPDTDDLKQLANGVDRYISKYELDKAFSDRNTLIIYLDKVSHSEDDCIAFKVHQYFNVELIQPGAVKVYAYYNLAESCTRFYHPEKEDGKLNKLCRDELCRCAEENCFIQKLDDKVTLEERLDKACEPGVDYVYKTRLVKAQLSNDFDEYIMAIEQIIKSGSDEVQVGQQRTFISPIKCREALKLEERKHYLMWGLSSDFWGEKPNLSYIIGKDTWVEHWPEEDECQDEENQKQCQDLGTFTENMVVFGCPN
QUANTITY: Hemolytic Assay IC50, Cyno AP (nM)
Please state the figure in nM; there is no need to write the unit.

A selection of reference data follows.
| BINDER | UNIT_ABBREV | Hemolytic Assay IC50, Cyno AP |
| --- | --- | --- |
| antibody 3G8 (antibody, V domains shown, Mouse hybridoma antibody) VH: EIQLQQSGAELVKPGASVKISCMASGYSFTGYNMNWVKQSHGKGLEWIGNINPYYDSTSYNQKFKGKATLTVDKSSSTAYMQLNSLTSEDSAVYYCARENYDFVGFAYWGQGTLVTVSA VL: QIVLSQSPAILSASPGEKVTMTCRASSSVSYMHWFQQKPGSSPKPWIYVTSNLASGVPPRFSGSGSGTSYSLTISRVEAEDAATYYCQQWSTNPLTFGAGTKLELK | nM | 20.9 |
| antibody 62F2 (antibody, V domains shown, Mouse hybridoma antibody) VH: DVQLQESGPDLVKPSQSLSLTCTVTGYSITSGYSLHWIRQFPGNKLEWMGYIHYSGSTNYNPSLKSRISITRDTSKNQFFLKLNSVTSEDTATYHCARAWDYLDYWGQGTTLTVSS VL: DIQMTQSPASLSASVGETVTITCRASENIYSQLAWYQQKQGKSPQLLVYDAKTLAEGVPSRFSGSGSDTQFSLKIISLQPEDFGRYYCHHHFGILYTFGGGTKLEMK | nM | 8.7 |

Proceeding to the next binder to report its Hemolytic Assay IC50, Cyno AP.
Request the reported Hemolytic Assay IC50, Cyno AP associated with antibody 28C3 (antibody, V domains shown, Mouse hybridoma antibody) VH: QVQLQQSGPELVKPGASVKISCKASGYAFNSCWMNWVKQRPGKGLEWIGRIYPGDGDTNYNGKFKGKATLTADKSSTTAYMQLSSLTSEDSAVYFCAREGRNYGYEDYWGQGTTLTVSS VL: DIVLTQSPASLAVSLGQRATISCKASQSVDYDGDSYMNWYQQKPGQPPKLLIYAASDLESGIPARFSGSGSGTDFTLNIHPVEEEDAATYYCQQANEDPRTFGGGTKLEIK
7.8
